- METHOD: Genotoxicity in Salmonella typhimurium TA1535 harboring pSK1002 assessed as survival at 0.001 mg/ml in absence of Sprague-Dawley rat liver S9 fraction after by SOS/umu assay relative to control
- Assay type: toxicity, organism-based
- TEST_SETTINGS: salmonella enterica subsp. enterica serovar typhimurium, read-out: Survival
Please go through the items and note down their viability at 0.001 mg/ml.
Supply the numeric figure in %, leaving out any unit text.

Request: Requested read-out: viability at 0.001 mg/ml. Entry: OC(CCN1CCN(c2ccccc2C(F)(F)F)CC1)c1ccc(F)cc1 (stereo not drawn)
Result: 111

Request: # repeat for N#Cc1ccc(N2CCC(NCCC(O)c3ccc(F)c4ccccc34)CC2)c(Cl)c1 (stereo not drawn)
Result: 130

Request: # repeat for OC(CCN1CCN(C(c2ccccc2)c2ccccc2)CC1)c1ccc(F)c(Cl)c1 (stereo not drawn)
Result: 105

Request: # repeat for COc1ccccc1C1=CCN(CCC(O)c2ccc(F)c3ccccc23)CC1 (stereo not drawn)
Result: 81.7

Request: # repeat for COC(=O)c1ccc(C(O)CCN2CC=C(c3ccc(F)cc3)CC2)cc1 (stereo not drawn)
Result: 124

Request: # repeat for O=[N+]([O-])c1ccc(N2CCN(CCC(O)c3ccc(F)c4ccccc34)CC2)cc1 (stereo not drawn)
Result: 88

Request: # repeat for OC(CCN1CC=C(c2ccc(F)cc2)CC1)c1ccc2c(c1)OCO2 (stereo not drawn)
Result: 131

Request: # repeat for Nc1ccc(N2CCC(NCCC(O)c3ccc(F)c4ccccc34)CC2)c(C(F)(F)F)c1 (stereo not drawn)
Result: 101

Request: # repeat for OC(CCN1CCN(C(c2ccccc2)c2ccccc2)CC1)c1ccc(F)c2ccccc12 (stereo not drawn)
Result: 81

Request: # repeat for OC(CCN1CCN(C(c2ccccc2)c2ccccc2)CC1)c1ccc(Br)cc1 (stereo not drawn)
Result: 98.3

Request: # repeat for COc1ccccc1N1CCN(CCC(O)c2ccc(F)cc2)CC1 (stereo in doubt; 66)
Result: 110

Request: # repeat for COc1ccccc1N1CCN(CCC(O)c2ccc(F)c3ccccc23)CC1 (stereo not drawn)
Result: 70.5

Request: # repeat for OC(CCN1CCN(c2ccc(F)cc2)CC1)c1ccc(F)c2ccccc12 (stereo not drawn)
Result: 111

Request: # repeat for O=[N+]([O-])c1ccccc1N1CCN(CCC(O)c2ccc(F)c3ccccc23)CC1 (stereo not drawn)
Result: 100

Request: # repeat for N#Cc1ccc(N2CCC(NCCC(O)c3ccc(F)c4ccccc34)CC2)c(C(F)(F)F)c1 (stereo in doubt; 72)
Result: 132

Request: # repeat for OC(CCN1CCN(C(c2ccccc2)c2ccccc2)CC1)c1ccc(F)cc1 (stereo not drawn)
Result: 94.9

Request: # repeat for OC(CCN1CCN(C(c2ccccc2)c2ccccc2)CC1)c1ccc(F)c(F)c1 (stereo not drawn)
Result: 110

Request: # repeat for N#Cc1ccc(C(O)CCN2CC=C(c3ccc(F)cc3)CC2)cc1 (stereo not drawn)
Result: 109

Request: # repeat for N#Cc1ccc(N2CCC(NCCC(O)c3ccc(F)c4ccccc34)CC2)c(Br)c1 (stereo not drawn)
Result: 104

Request: # repeat for OC(CCN1CCN(C(c2ccccc2)c2ccccc2)CC1)c1ccc(Cl)cc1 (stereo not drawn)
Result: 106

Request: # repeat for COc1ccccc1C1=CCN(CCC(O)c2ccc(F)cc2)CC1 (stereo not drawn)
Result: 114

Request: # repeat for Oc1ccc(C(O)CCN2CC=C(c3ccc(F)cc3)CC2)cc1 (stereo not drawn)
Result: 87.9

Request: # repeat for OC(CCN1CCN(c2ccccc2C(F)(F)F)CC1)c1ccc(F)c2ccccc12 (stereo in doubt; 55)
Result: 43.3
